biological target: Glutamate receptor ionotropic, kainate; test: Binding affinity towards Ionotropic glutamate receptor kainate was determined in rat cortical membrane using [3H]KA as radioligand
endpoint label: pKi
Scale for pKi: -log10 of concentration given in mol/L; no unit attached.

## Task Entry O=c1[nH]c2cc([N+](=O)[O-])c(-n3ccnc3)cc2n(O)c1=O has what pKi?
## Result 6.20

* * *

target: Glutamate NMDA receptor; test: Binding affinity towards NMDA receptor was determined in rat whole brain membrane using NMDA-sensitive [3H]Glu as radioligand
endpoint label: pKi
Scale for pKi: -log10 of concentration given in mol/L; no unit attached.

## Task Missing value: pKi, Glutamate NMDA receptor, entry O=c1[nH]c2cc([N+](=O)[O-])c(-n3ccnc3)cc2n(O)c1=O . Fill in?
## Result 4.92
